Biological target: papain (Carica papaya, UniProt P00784)
Sequence (P00784 134-345): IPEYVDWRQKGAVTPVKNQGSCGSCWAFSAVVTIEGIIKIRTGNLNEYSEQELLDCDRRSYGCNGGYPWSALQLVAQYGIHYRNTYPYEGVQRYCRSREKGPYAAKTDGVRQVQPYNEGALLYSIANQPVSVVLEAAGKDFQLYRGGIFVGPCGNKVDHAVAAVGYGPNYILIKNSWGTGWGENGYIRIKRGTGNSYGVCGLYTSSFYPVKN
REPORTED PROPERTY: pIC50
Give bare numbers, as −log10 of the molar value.

The reported value for CC/C(=C\c1ccc(OCC(=O)NC(Cc2ccccc2)C(=O)N2CCOCC2)cc1)[N+](=O)[O-] (stereo not shown) [14a] in terms of pIC50 is 5.02

The measured values listed here are drawn from paper PMC11837772.
